Entries and their half-life values follow.
test: Plasma stability, human; type: in vitro ADME; conditions: 37° C., >255.85 if remaining at 60 min greater than 85%

Look over these answered cases.
MOLECULE: COc1ccc2c(c1)N(C[C@H]1CCCN1C)CC2 [(R)-I-58]
ASSAY ENDPOINT: half-life
READING: > 4.26 h
//
MOLECULE: CC(C)[N+](C)(CCOC(=O)C1c2ccccc2Oc2ccccc21)C(C)C [Propantheline, reference compound]
ASSAY ENDPOINT: half-life
READING: 0.189 h
//
MOLECULE: [2H]C([2H])([2H])Oc1ccc2c(c1)N(C([2H])([2H])[C@H]1CCCN1C([2H])([2H])[2H])CC2 [(R)-I-28]
ASSAY ENDPOINT: half-life
READING: > 4.26 h
//
MOLECULE: COc1cccc2c1N(C[C@H]1CCCN1C)CC2 [(R)-I-46]
ASSAY ENDPOINT: half-life
READING: > 4.26 h

Consider the record given below.
Any idea what its half-life is? The molecule is [2H]C([2H])([2H])N1CCC[C@@H]1C([2H])([2H])N1CCc2ccc(OC)cc21 [(R)-I-57]
> 4.26 h

---

Reported Remaining Percentage (%), 0 min values for the following compounds.
assay: Plasma stability, rat; type: in vitro ADME; conditions: 37° C., 0 min
Reply with just the number (in %).

Known results for compounds:
COMPOUND: COc1ccc2c(c1)N(C[C@H]1CCCN1C)CC2 [(R)-I-58]
READING: 100.00
--
COMPOUND: [2H]C([2H])([2H])Oc1ccc2c(c1)N(C([2H])([2H])[C@H]1CCCN1C([2H])([2H])[2H])CC2 [(R)-I-28]
READING: 100.00
--
COMPOUND: [2H]C([2H])([2H])N1CCC[C@@H]1C([2H])([2H])N1CCc2ccc(OC)cc21 [(R)-I-57]
READING: 100.00
--
COMPOUND: COc1cccc2c1N(C[C@H]1CCCN1C)CC2 [(R)-I-46]
READING: 100.00

--- query ---
I have this compound here, CC[C@H](C)C(=O)O[C@H]1C[C@@H](C)C=C2C=C[C@H](C)[C@H](CC[C@@H]3C[C@@H](O)CC(=O)O3)[C@H]21 [Lovastatin, reference compound] , and I need its recorded Remaining Percentage (%), 0 min.
100.00

---

molecular target: human 5-HT2A (h5-HT2A) receptor (Homo sapiens); assay: FLIPR assay: human 5-HT2A (agonist mode); settings: FLIPR calcium, agonist mode, HTR2A&Gα15-HEK293 cells; ND: not detected
Sequence (P28223 whole entry): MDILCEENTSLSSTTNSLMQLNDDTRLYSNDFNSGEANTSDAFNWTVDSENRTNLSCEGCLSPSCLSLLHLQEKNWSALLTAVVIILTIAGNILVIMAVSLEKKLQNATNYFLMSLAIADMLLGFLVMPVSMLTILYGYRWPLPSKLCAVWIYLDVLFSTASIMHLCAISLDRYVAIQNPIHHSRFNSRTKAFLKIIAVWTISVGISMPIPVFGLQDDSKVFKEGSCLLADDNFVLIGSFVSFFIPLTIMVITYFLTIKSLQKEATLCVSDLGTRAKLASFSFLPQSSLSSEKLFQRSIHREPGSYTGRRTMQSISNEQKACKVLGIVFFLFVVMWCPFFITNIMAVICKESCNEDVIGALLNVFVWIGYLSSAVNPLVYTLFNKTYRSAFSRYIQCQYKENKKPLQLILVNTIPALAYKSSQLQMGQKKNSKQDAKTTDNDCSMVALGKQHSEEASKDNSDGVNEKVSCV
ASSAY ENDPOINT: pEC50
Hey, just a heads up that pEC50 is the negative log base 10 of the concentration in molar.

Please review the entries below; each comes with its answer.
COMPOUND: [2H]C([2H])([2H])Oc1ccc2c(c1)N(C([2H])([2H])[C@H]1CCCN1C([2H])([2H])[2H])CC2 [(R)-I-28]
TARGET OR SYSTEM: human 5-HT2A (h5-HT2A) receptor (Homo sapiens)
pEC50: 5.96
//
COMPOUND: COc1ccc2c(c1)N(C[C@H]1CCCN1)CC2 [(R)-I-59]
TARGET OR SYSTEM: human 5-HT2A (h5-HT2A) receptor (Homo sapiens)
pEC50: 5.92

Now let's try a different one.
I'd like to know its pEC50. The compound in question is COc1cccc2c1N(C[C@H]1CCCN1C)CC2 [(R)-I-46]
5.94
